Ref: paper PMC12169608

Test: Hamster hepatocyte stability
Conditions: cryopreserved hepatocytes, with ritonavir 0.25 µM (compound/ritonavir 4:1), t1/2 (hamster hepatocytes + ritonavir 4:1), compound/ritonavir 4:1
ENDPOINT LABEL: half-life at 1 µM (min)

[[record]]
smiles_representation = "CC(C)(O)c1c(F)c(F)c(OCC(=O)[C@H](C[C@@H]2CCNC2=O)NC(=O)[C@@H]2[C@@H]3[C@H](CN2C(=O)[C@@H](NC(=O)C(F)(F)F)C(C)(C)C)C3(C)C)c(F)c1F"
measured = 15.5


====

Test: physchem
Details: pH 7.4
ENDPOINT LABEL: logD

[[record]]
compound = "CCCCCCCCCCCCCCCC(=O)N[C@@H](Cc1cccc(F)c1)C(=O)N[C@@H](C[C@@H]1CCNC1=O)C(=O)COc1c(F)c(F)c(CO)c(F)c1F [compound 4]"
measured = "> 3.5"


====

Conditions: 3 h, 2 µM
ENDPOINT LABEL: mouse plasma protein binding, fraction bound (Fb) (%)

[[record]]
molecule = "COc1cccc2[nH]c(C(=O)N[C@@H](Cc3cccc(F)c3)C(=O)N[C@@H](C[C@@H]3CCNC3=O)C(=O)COc3c(F)c(F)c(C(C)O)c(F)c3F)cc12 (some centres unmarked) [compound 8]"
value_units = "%"
measured = 99.17

[[record]]
molecule = "CC(C)(O)c1c(F)c(F)c(OCC(=O)[C@H](C[C@@H]2CCNC2=O)NC(=O)[C@@H]2[C@@H]3[C@H](CN2C(=O)[C@@H](NC(=O)C(F)(F)F)C(C)(C)C)C3(C)C)c(F)c1F [compound 14]"
value_units = "%"
measured = 99.24

[[record]]
molecule = "O=C(N[C@@H](Cc1c[nH]c2ccccc12)C(=O)N[C@@H](C[C@@H]1CCNC1=O)C(=O)COc1c(F)c(F)c(CO)c(F)c1F)c1cc2ccccc2[nH]1 [compound 5]"
value_units = "%"
measured = 98.79

[[record]]
molecule = "COc1cccc2[nH]c(C(=O)N[C@@H](Cc3cccc(F)c3)C(=O)N[C@@H](C[C@@H]3CCNC3=O)C(=O)COc3c(F)c(F)c(C(C)(C)O)c(F)c3F)cc12 [compound 10]"
value_units = "%"
measured = 98.95

[[record]]
molecule = "COc1cccc2[nH]c(C(=O)N[C@@H](Cc3cccc(F)c3)C(=O)N[C@@H](C[C@@H]3CCNC3=O)C(=O)COc3c(F)c(F)c(F)c(F)c3F)cc12 [compound 16, reference compound]"
value_units = "%"
measured = 99.33


====

Experiment: Mouse hepatocyte stability
Details: mouse, cryopreserved hepatocytes
ENDPOINT LABEL: half-life at 1 µM

[[record]]
compound = "COc1cccc2[nH]c(C(=O)N[C@@H](Cc3cccc(F)c3)C(=O)N[C@@H](C[C@@H]3CCNC3=O)C(=O)COc3c(F)c(F)c(C(C)O)c(F)c3F)cc12 (stereo partly drawn) [compound 8]"
measured = "26.9 min"

[[record]]
compound = "CC(C)(C)[C@H](NC(=O)C(F)(F)F)C(=O)N1C[C@H]2[C@@H]([C@H]1C(=O)N[C@@H](C[C@@H]1CCNC1=O)C(=O)COc1c(F)c(F)c(CO)c(F)c1F)C2(C)C [compound 7]"
measured = "14.3 min"

[[record]]
compound = "COc1cccc2[nH]c(C(=O)N[C@@H](Cc3cccc(F)c3)C(=O)N[C@@H](CCn3cn[nH]c3=O)C(=O)COc3c(F)c(F)c(C(C)(C)O)c(F)c3F)cc12 [compound 13]"
measured = "22 min"

[[record]]
compound = "COc1cccc2[nH]c(C(=O)N[C@@H](Cc3cccc(F)c3)C(=O)N[C@@H](C[C@@H]3CCNC3=O)C(=O)COc3c(F)c(F)c(C(C)(C)O)c(F)c3F)cc12 [compound 10]"
measured = "36.4 min"

[[record]]
compound = "COc1cccc2[nH]c(C(=O)N[C@@H](Cc3cccc(F)c3)C(=O)N[C@@H](C[C@@H]3CCNC3=O)C(=O)COc3c(F)c(F)c(CO)c(F)c3F)cc12 [compound 1]"
measured = "9.3 min"

[[record]]
compound = "CC(C)(O)c1c(F)c(F)c(OCC(=O)[C@H](C[C@@H]2CCNC2=O)NC(=O)[C@@H]2[C@@H]3[C@H](CN2C(=O)[C@@H](NC(=O)C(F)(F)F)C(C)(C)C)C3(C)C)c(F)c1F [compound 14]"
measured = "15.5 min"

